- test description: Pharmacokinetics after single IP administration
- measurement context: K18-hACE2(Tg) C57Bl/6J, mouse, in vivo, 40 mg/kg, AUC ratio (Tissue/PL), Heart, single IP
assay metric: Kp

1) NC(=O)N1CCC(CC(=O)N2CCC([C@H]3c4ncc(Br)cc4CCc4cc(Cl)cc(Br)c43)CC2)CC1 :: 3.9

----------
- test description: Pharmacokinetics after single IP administration
- measurement context: K18-hACE2(Tg) C57Bl/6J, mouse, in vivo, 40 mg/kg, t1/2, Heart, single IP
assay metric: half-life (h)

1. NC(=O)N1CCC(CC(=O)N2CCC([C@H]3c4ncc(Br)cc4CCc4cc(Cl)cc(Br)c43)CC2)CC1 [LNF, lonafarnib] :: 10.1

----------
- System: Huh7 cells
- measurement context: initial screening
Let's look at some compounds and their measured CC50.
assay metric: CC50

1. CN1CCC(N(c2ccccc2)c2ccccc2)CC1 :: > 30 µM
2. FC(F)(F)CN1CCN([C@@H](c2ccccc2)c2ccc(Cl)cc2)CC1 :: > 30 µM
3. Clc1ccc(C(c2ccc(Cl)cc2)N2CCOCC2)cc1 :: > 30 µM
4. Cl.Cl.O=C(O)COCCN1CCN(C(c2ccccc2)c2ccc(Cl)cc2)CC1 (stereo not drawn) :: > 30 µM
5. C(=C/c1ccccc1)/CN1CCN(C(c2ccccc2)c2ccccc2)CC1 :: 22 µM
6. CN1CCC(CN2c3ccccc3Sc3ccccc32)C1 (stereo not drawn) :: > 30 µM
7. Clc1ccc([C@H](c2ccccc2)N2CCN(C3CCCCC3)CC2)cc1 :: 14.1 µM
8. c1ccc2c(c1)Sc1ccccc1N2CC1CN2CCC1CC2 (stereo not drawn) :: 26.3 µM
9. CC(=O)N1CCN([C@@H](c2ccccc2)c2ccc(Cl)cc2)CC1 :: > 30 µM

----------
- test description: Pharmacokinetics after single IP administration
- measurement context: K18-hACE2(Tg) C57Bl/6J, mouse, in vivo, 40 mg/kg, t1/2, Liver, single IP
assay metric: half-life (h)

1) NC(=O)N1CCC(CC(=O)N2CCC([C@H]3c4ncc(Br)cc4CCc4cc(Cl)cc(Br)c43)CC2)CC1 :: 10.7

----------
- test description: Pharmacokinetics after PO administration
- measurement context: K18-hACE2(Tg) C57Bl/6J, mouse, in vivo, 25 mg/kg, AUC ratio (Tissue/PL), Lung, PO
assay metric: Kp

1) NC(=O)N1CCC(CC(=O)N2CCC([C@H]3c4ncc(Br)cc4CCc4cc(Cl)cc(Br)c43)CC2)CC1 [LNF, lonafarnib] :: 2.4

----------
- test description: Pharmacokinetics after PO administration
- measurement context: K18-hACE2(Tg) C57Bl/6J, mouse, liver, 25 mg/kg
assay metric: Cmax (µM)

1. NC(=O)N1CCC(CC(=O)N2CCC([C@H]3c4ncc(Br)cc4CCc4cc(Cl)cc(Br)c43)CC2)CC1 [LNF, lonafarnib] :: 20

----------
- test description: Pharmacokinetics after single IP administration
- measurement context: K18-hACE2(Tg) C57Bl/6J, mouse, lung, 40 mg/kg
assay metric: AUC(0-inf) (µM·h)

1) NC(=O)N1CCC(CC(=O)N2CCC([C@H]3c4ncc(Br)cc4CCc4cc(Cl)cc(Br)c43)CC2)CC1 :: 788

----------
- System: VSV-SARS-CoV-2-S pseudovirus
- test description: microbe, parasite or virus in culture
- Assay type: cell-based
- measurement context: read-out: EC50
assay metric: EC50

1. CN(C)CCOC(c1ccc(Cl)cc1)c1ccccn1 (stereo not shown) [NCGC00166141] :: 26.3 µM
2. CN(C)CC[C@@H](c1ccc(Br)cc1)c1ccccn1 [NCGC00162100] :: 23.3 µM
3. Cc1ccc(C(=CCN2CCCC2)c2cccc(C=CC(=O)O)n2)cc1 [NCGC00182053] :: > 30 µM
4. O=C(CCCN1CCN(c2ccc(F)cc2)CC1)NC1c2ccccc2CSc2ccccc21 (stereo not shown) [NCGC00183837] :: > 30 µM
5. CN1CCC(N(c2ccccc2)c2ccc(OC(C)(C)C)cc2)CC1 [NCGC00346851] :: 14.9 µM
6. CCOC(=O)N1CCC(=C2c3ccc(Cl)cc3CCc3cccnc32)CC1 [NCGC00015619] :: > 30 µM
7. CC(CN1c2ccccc2Sc2cccnc21)N(C)C (stereo not shown) [NCGC00181101] :: > 30 µM
8. CN1CCC(=C2c3ccccc3CC(=O)c3sccc32)CC1 [NCGC00015580] :: > 30 µM
9. CCc1ccc2c(c1)N(CC(C)CN(C)C)c1ccccc1S2.Cl (stereo not shown) [NCGC00014485] :: 2.8 µM
10. COc1ccc(CN(CCN(C)C)c2ncccn2)cc1 [NCGC00178145] :: > 30 µM
11. COc1ccc(CN(CCN(C)C)c2ccccn2)cc1 [NCGC00015822] :: > 30 µM
12. COc1ccc(CN2CCN([C@@H](c3ccccc3)c3ccc(Cl)cc3)CC2)c(OC)c1 [NCGC00346845] :: 22.5 µM
13. OC(c1ccccc1)(c1ccccc1)C1CN2CCC1CC2 (stereo not shown) [NCGC00160492] :: > 30 µM
14. c1ccc(CN(CC2=NCCN2)c2ccccc2)cc1 [NCGC00016613] :: > 30 µM
15. Cl.Cl.O=C(O)COCCN1CCN(C(c2ccccc2)c2ccc(Cl)cc2)CC1 (stereo not shown) [NCGC00016949] :: > 30 µM
16. Clc1ccc(Cn2c(CN3CCCC3)nc3ccccc32)cc1 [NCGC00015243] :: > 30 µM

----------
- System: SARS-CoV-2-nLUC
- test description: microbe, parasite or virus in culture
- Type: cell-based
- measurement context: Severe acute respiratory syndrome coronavirus 2, Calu-3, 24 h, Calu3; 24 h; Fig 1G; read-out: EC50
assay metric: EC50 (µM)

1. NC(=O)N1CCC(CC(=O)N2CCC([C@H]3c4ncc(Br)cc4CCc4cc(Cl)cc(Br)c43)CC2)CC1 [LNF, lonafarnib] :: 3.11

----------
- Tested on: SARS-CoV-2-nLUC
- test description: microbe, parasite or virus in culture
- Type: cell-based
- measurement context: VeroE6; 24 h; Fig 1G, Fig 5B; read-out: EC50
assay metric: EC50 (nM)

1. NC(=O)N1CCC(CC(=O)N2CCC([C@H]3c4ncc(Br)cc4CCc4cc(Cl)cc(Br)c43)CC2)CC1 :: 2000

----------
- test description: Pharmacokinetics after PO administration
- measurement context: K18-hACE2(Tg) C57Bl/6J, mouse, kidney, 25 mg/kg
assay metric: Tmax

1) NC(=O)N1CCC(CC(=O)N2CCC([C@H]3c4ncc(Br)cc4CCc4cc(Cl)cc(Br)c43)CC2)CC1 :: 1 h

----------
- test description: Pharmacokinetics after PO administration
- measurement context: K18-hACE2(Tg) C57Bl/6J, mouse, brain, 25 mg/kg
assay metric: Cmax

1) NC(=O)N1CCC(CC(=O)N2CCC([C@H]3c4ncc(Br)cc4CCc4cc(Cl)cc(Br)c43)CC2)CC1 [LNF, lonafarnib] :: 210 nM

----------
- test description: in vitro
- measurement context: human
assay metric: CC50

1. NC(=O)N1CCC(CC(=O)N2CCC([C@H]3c4ncc(Br)cc4CCc4cc(Cl)cc(Br)c43)CC2)CC1 :: > 30 µM

----------
- test description: Pharmacokinetics after single IP administration
- measurement context: K18-hACE2(Tg) C57Bl/6J, mouse, in vivo, 40 mg/kg, AUC ratio (Tissue/PL), Brain, single IP
assay metric: Kp

1. NC(=O)N1CCC(CC(=O)N2CCC([C@H]3c4ncc(Br)cc4CCc4cc(Cl)cc(Br)c43)CC2)CC1 [LNF, lonafarnib] :: 0.12

----------
- test description: Pharmacokinetics after PO administration
- measurement context: K18-hACE2(Tg) C57Bl/6J, mouse, in vivo, 25 mg/kg, AUC ratio (Tissue/PL), Liver, PO
assay metric: Kp

1) NC(=O)N1CCC(CC(=O)N2CCC([C@H]3c4ncc(Br)cc4CCc4cc(Cl)cc(Br)c43)CC2)CC1 :: 5.2

----------
- test description: Pharmacokinetics after single IP administration
- measurement context: K18-hACE2(Tg) C57Bl/6J, mouse, brain, 40 mg/kg
assay metric: Tmax

1) NC(=O)N1CCC(CC(=O)N2CCC([C@H]3c4ncc(Br)cc4CCc4cc(Cl)cc(Br)c43)CC2)CC1 [LNF, lonafarnib] :: 7 h

----------
- test description: Pharmacokinetics after PO administration
- measurement context: K18-hACE2(Tg) C57Bl/6J, mouse, lung, 25 mg/kg
assay metric: Tmax

1. NC(=O)N1CCC(CC(=O)N2CCC([C@H]3c4ncc(Br)cc4CCc4cc(Cl)cc(Br)c43)CC2)CC1 [LNF, lonafarnib] :: 15 min

----------
- test description: Pharmacokinetics after single IP administration
- measurement context: K18-hACE2(Tg) C57Bl/6J, mouse, in vivo, 40 mg/kg, C24h, Lung, single IP
assay metric: concentration at 24 h (µM)

1. NC(=O)N1CCC(CC(=O)N2CCC([C@H]3c4ncc(Br)cc4CCc4cc(Cl)cc(Br)c43)CC2)CC1 :: 8.17
